Just for reference, patent US8257698B2 is where these values come from.

Reported Kcat by item:
- Test system: MGLL
- test-summary: Kinetic analysis: hydrolysis of 4-methyl coumarin butyrate (4MC-B) by MGLL constructs
- Assay type: biochemical, human
- condition-context: substrate 4MC-B; 4-5 nM MGLL, 20 mM Pipes pH 7, 150 mM NaCl, 37° C.; average of 2 or 4 separate assays
Report the figure in s⁻¹ without appending any unit label.

molecule	Kcat [s⁻¹]
mut-MGLL 9-297, L169S, L176S: engineered form of human MGLL, cap mutations plus truncation (protein, UniProt Q99685 9-297, looked up, variant L169S L176S) RTPQSIPYQDLPHLVNADGQYLFCRYWKPTGTPKALIFVSHGAGEHSGRYEELARMLMGLDLLVFAHDHVGHGQSEGERMVVSDFHVFVRDVLQHVDSMQKDYPGLPVFLLGHSMGGAIAILTAAERPGHFAGMVLISPLVLANPESATTFKVLAAKVLNSVLPNLSSGPIDSSVLSRNKTEVDIYNSDPLICRAGLKVCFGIQLLNAVSRVERALPKLTVPFLLLQGSADRLCDSKGAYLLMELAKSQDKTLKIYEGAYHVLHKELPEVTNSVFHEINMWVSQRTATA	0.433
mut-MGLL 1-303, L171Q, L174Q: engineered form of human MGLL, cap mutations (protein) MVDHHHHHHENLYFQGMPEESSPRRTPQSIPYQDLPHLVNADGQYLFCRYWKPTGTPKALIFVSHGAGEHSGRYEELARMLMGLDLLVFAHDHVGHGQSEGERMVVSDFHVFVRDVLQHVDSMQKDYPGLPVFLLGHSMGGAIAILTAAERPGHFAGMVLISPLVLANPESATTFKVLAAKVLNLVQPNQSLGPIDSSVLSRNKTEVDIYNSDPLICRAGLKVCFGIQLLNAVSRVERALPKLTVPFLLLQGSADRLCDSKGAYLLMELAKSQDKTLKIYEGAYHVLHKELPEVTNSVFHEINMWVSQRTATAGTASPP	0.783

Kcat recorded for this molecule, mut-MGLL 1-303, L171Q: engineered form of human MGLL, cap mutation (protein) MVDHHHHHHENLYFQGMPEESSPRRTPQSIPYQDLPHLVNADGQYLFCRYWKPTGTPKALIFVSHGAGEHSGRYEELARMLMGLDLLVFAHDHVGHGQSEGERMVVSDFHVFVRDVLQHVDSMQKDYPGLPVFLLGHSMGGAIAILTAAERPGHFAGMVLISPLVLANPESATTFKVLAAKVLNLVQPNLSLGPIDSSVLSRNKTEVDIYNSDPLICRAGLKVCFGIQLLNAVSRVERALPKLTVPFLLLQGSADRLCDSKGAYLLMELAKSQDKTLKIYEGAYHVLHKELPEVTNSVFHEINMWVSQRTATAGTASPP , is 0.85

Kcat for mut-MGLL 9-303, L169S, L176S: engineered form of human MGLL, cap mutations plus truncation (protein, UniProt Q99685 9-303, looked up, variant L169S L176S) RTPQSIPYQDLPHLVNADGQYLFCRYWKPTGTPKALIFVSHGAGEHSGRYEELARMLMGLDLLVFAHDHVGHGQSEGERMVVSDFHVFVRDVLQHVDSMQKDYPGLPVFLLGHSMGGAIAILTAAERPGHFAGMVLISPLVLANPESATTFKVLAAKVLNSVLPNLSSGPIDSSVLSRNKTEVDIYNSDPLICRAGLKVCFGIQLLNAVSRVERALPKLTVPFLLLQGSADRLCDSKGAYLLMELAKSQDKTLKIYEGAYHVLHKELPEVTNSVFHEINMWVSQRTATAGTASPP is 0.45

Recorded Kcat (molecule mut-MGLL 1-303, L167Q, L171Q: engineered form of human MGLL, cap mutations (protein) MVDHHHHHHENLYFQGMPEESSPRRTPQSIPYQDLPHLVNADGQYLFCRYWKPTGTPKALIFVSHGAGEHSGRYEELARMLMGLDLLVFAHDHVGHGQSEGERMVVSDFHVFVRDVLQHVDSMQKDYPGLPVFLLGHSMGGAIAILTAAERPGHFAGMVLISPLVLANPESATTFKVLAAKVQNLVQPNLSLGPIDSSVLSRNKTEVDIYNSDPLICRAGLKVCFGIQLLNAVSRVERALPKLTVPFLLLQGSADRLCDSKGAYLLMELAKSQDKTLKIYEGAYHVLHKELPEVTNSVFHEINMWVSQRTATAGTASPP ): 0.983
